pIC50: −log10 of the molar value.
Here we list compounds with their recorded pIC50 when tested on PDE V (Oryctolagus cuniculus).
measuredQuantity: pIC50

{"columns": ["testSmiles", "resultValue"],
 "data": [
  ["CCCc1nn(C)c2c(=O)[nH]c(-c3sc(S(=O)(=O)N4CCN(C(N)=O)CC4)cc3OCC)nc12", 6.02],
  ["CCCc1nn(C)c2c(=O)[nH]c(-c3cc4c(S(=O)(=O)N5CCN(C)CC5)ccc(OCC)c4o3)nc12", 5.27],
  ["CCCc1nn(C)c2c(=O)[nH]c(-c3sc(S(=O)(=O)N(C)CCN(C)C)cc3OCC)nc12", 5.31],
  ["CCCc1nn(C)c2c(=O)[nH]c(-c3sc(S(=O)(=O)N4CCN(C)CC4)cc3OCC)nc12", 5.10],
  ["CCCc1nn(C)c2c(=O)[nH]c(-c3sc(S(=O)(=O)N4CCN(C)CC4)cc3O)nc12", 5.00],
  ["CCCc1nn(C)c2c(=O)[nH]c(-c3sc(S(=O)(=O)N(C)C)cc3OCC)nc12", 5.85]
]}
